Tested on: 252836-082-R-J2-PDC tumor spheroids, viability
Experiment: Anticancer human tumor 252836-082-R-J2-PDC patient-derived head and neck squamous cell carcinoma cell line growth inhibition [PI3K]
Settings: second compound 0.1 µM; first compound 0.0949 µM; hits give low values; spheroids with HUVEC and MSC
Attribute Measured: viability, T/C (%)
Field: numeric (%). Do not append units.

Please report the recorded viability, T/C for Cn1cnc2c(F)c(Nc3ccc(Br)cc3Cl)c(C(=O)NOCCO)cc21 + CC(Nc1ncnc2nc[nH]c12)c1cc2cccc(Cl)c2c(=O)n1-c1ccccc1 . 88.8

Please report the recorded viability, T/C for Cn1cnc2c(F)c(Nc3ccc(Br)cc3Cl)c(C(=O)NOCCO)cc21 + COc1c(OCCCN2CCOCC2)ccc2c3n(c(=NC(=O)c4cnc(N)nc4)nc12)CCN3 . 33.1

Please report the recorded viability, T/C for Cn1cnc2c(F)c(Nc3ccc(Br)cc3Cl)c(C(=O)NOCCO)cc21 + Cc1nc(NC(=O)N2CCCC2C(N)=O)sc1-c1ccnc(C(C)(C)C(F)(F)F)c1 . 73.3

Further cases:
Please report the recorded viability, T/C for Cn1cnc2c(F)c(Nc3ccc(Br)cc3Cl)c(C(=O)NOCCO)cc21 + CC(Nc1ccc2c(c1)OCCn1cc(N3C(=O)OCC3C(F)F)nc1-2)C(N)=O . 58.4

###

Items are presented alongside their recorded viability, T/C.
System: 252836-082-R-J2-PDC tumor spheroids, viability
Test: Anticancer human tumor 252836-082-R-J2-PDC cell line growth inhibition [PI3K];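 also: spheroids exposed to agents for seven days before readout; percent of vehicle DMSO control viability so 100% = untreated growth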
Conditions: second compound 0.0316 µM; first compound 0.01 µM; hits give low values; spheroids with HUVEC and MSC
Field: numeric (%). Do not append units.

Please report the recorded viability, T/C for CCN1CCN(Cc2ccc(Nc3ncc(F)c(-c4cc(F)c5nc(C)n(C(C)C)c5c4)n3)nc2)CC1 + CC(Nc1ncnc2nc[nH]c12)c1cc2cccc(Cl)c2c(=O)n1-c1ccccc1 . 94.4

Please report the recorded viability, T/C for CC(C)n1nc(-c2ccc3oc(N)nc3c2)c2c(N)ncnc21 + COc1c(OCCCN2CCOCC2)ccc2c3n(c(=NC(=O)c4cnc(N)nc4)nc12)CCN3 . 42.1

Please report the recorded viability, T/C for CCN1CCN(Cc2ccc(Nc3ncc(F)c(-c4cc(F)c5nc(C)n(C(C)C)c5c4)n3)nc2)CC1 + Cc1nc(NC(=O)N2CCCC2C(N)=O)sc1-c1ccnc(C(C)(C)C(F)(F)F)c1 . 94.1

Please report the recorded viability, T/C for Cn1ncnc1[C@H]1c2n[nH]c(=O)c3cc(F)cc(c23)N[C@@H]1c1ccc(F)cc1 + COc1c(OCCCN2CCOCC2)ccc2c3n(c(=NC(=O)c4cnc(N)nc4)nc12)CCN3 . 52.1

Further cases:
Please report the recorded viability, T/C for CC(C)n1nc(-c2ccc3oc(N)nc3c2)c2c(N)ncnc21 + CC(Nc1ncnc2nc[nH]c12)c1cc2cccc(Cl)c2c(=O)n1-c1ccccc1 . 95.5

Please report the recorded viability, T/C for CC(=O)c1c(C)c2cnc(Nc3ccc(N4CCNCC4)cn3)nc2n(C2CCCC2)c1=O + COc1c(OCCCN2CCOCC2)ccc2c3n(c(=NC(=O)c4cnc(N)nc4)nc12)CCN3 . 56.5

Please report the recorded viability, T/C for CC(=O)c1c(C)c2cnc(Nc3ccc(N4CCNCC4)cn3)nc2n(C2CCCC2)c1=O + CC(Nc1ccc2c(c1)OCCn1cc(N3C(=O)OCC3C(F)F)nc1-2)C(N)=O . 70.7

Please report the recorded viability, T/C for CC(=O)c1c(C)c2cnc(Nc3ccc(N4CCNCC4)cn3)nc2n(C2CCCC2)c1=O + CC(Nc1ncnc2nc[nH]c12)c1cc2cccc(Cl)c2c(=O)n1-c1ccccc1 . 89.1

Please report the recorded viability, T/C for CC(=O)c1c(C)c2cnc(Nc3ccc(N4CCNCC4)cn3)nc2n(C2CCCC2)c1=O + Cc1nc(NC(=O)N2CCCC2C(N)=O)sc1-c1ccnc(C(C)(C)C(F)(F)F)c1 . 79.5

Please report the recorded viability, T/C for CC(C)n1nc(-c2ccc3oc(N)nc3c2)c2c(N)ncnc21 + Cc1nc(NC(=O)N2CCCC2C(N)=O)sc1-c1ccnc(C(C)(C)C(F)(F)F)c1 . 71.5

Please report the recorded viability, T/C for CC(C)n1nc(-c2ccc3oc(N)nc3c2)c2c(N)ncnc21 + CC(Nc1ccc2c(c1)OCCn1cc(N3C(=O)OCC3C(F)F)nc1-2)C(N)=O . 61.7

Please report the recorded viability, T/C for Cn1ncnc1[C@H]1c2n[nH]c(=O)c3cc(F)cc(c23)N[C@@H]1c1ccc(F)cc1 + CC(Nc1ccc2c(c1)OCCn1cc(N3C(=O)OCC3C(F)F)nc1-2)C(N)=O . 64.4

Please report the recorded viability, T/C for Cn1ncnc1[C@H]1c2n[nH]c(=O)c3cc(F)cc(c23)N[C@@H]1c1ccc(F)cc1 + Cc1nc(NC(=O)N2CCCC2C(N)=O)sc1-c1ccnc(C(C)(C)C(F)(F)F)c1 . 76.2

###

Tested on: 252836-082-R-J2-PDC tumor spheroids, viability
Assay: Anticancer human tumor 252836-082-R-J2-PDC cell line growth inhibition [PI3K];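 also: spheroids exposed to agents for seven days before readout; percent of vehicle DMSO control viability so 100% = untreated growth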
Details: second compound 0.316 µM; first compound 0.0316 µM; hits give low values; spheroids with HUVEC and MSC
// assign criterion met if viability, T/C falls strictly below 70%, else criterion not met (ties count as criterion not met)

Worked cases, answers included:
Take the compound CC(C)NCC(C(=O)N1CCN(c2ncnc3c2C(C)CC3O)CC1)c1ccc(Cl)cc1 (stereo not given) + CC(Nc1ccc2c(c1)OCCn1cc(N3C(=O)OCC3C(F)F)nc1-2)C(N)=O and say whether its viability, T/C is less than 70%. criterion met

Take the compound Cn1ncc(Cl)c1-c1cc(C(=O)NC(CN)Cc2cccc(F)c2)sc1Cl (stereo not given) + Cc1nc(NC(=O)N2CCCC2C(N)=O)sc1-c1ccnc(C(C)(C)C(F)(F)F)c1 and say whether its viability, T/C is less than 70%. criterion met

Take the compound Cn1ncnc1[C@H]1c2n[nH]c(=O)c3cc(F)cc(c23)N[C@@H]1c1ccc(F)cc1 + COc1c(OCCCN2CCOCC2)ccc2c3n(c(=NC(=O)c4cnc(N)nc4)nc12)CCN3 and say whether its viability, T/C is less than 70%. criterion met

Please find the next compound below.
Take the compound CCN1CCN(Cc2ccc(Nc3ncc(F)c(-c4cc(F)c5nc(C)n(C(C)C)c5c4)n3)nc2)CC1 + COc1c(OCCCN2CCOCC2)ccc2c3n(c(=NC(=O)c4cnc(N)nc4)nc12)CCN3 and say whether its viability, T/C is less than 70%. criterion met

###

Test system: 252836-082-R-J2-PDC tumor spheroids, viability
Experiment: Anticancer human tumor 252836-082-R-J2-PDC cell line growth inhibition [PI3K]; active = viability on the fitted dose curve at most 10% of control; inactive = the rest;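 also: spheroids exposed to agents for seven days before readout; percent of vehicle DMSO control viability so 100% = untreated growth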
Conditions: second compound 1 µM; first compound 3.16 µM; spheroids with HUVEC and MSC
Hi! Could you answer with just one of these? active, inactive

Worked cases, answers included:
Assay outcome for C[C@@H](NC(=O)c1ncnc(N)c1Cl)c1ncc(C(=O)Nc2cc(C(F)(F)F)c(Cl)cn2)s1 + COc1c(OCCCN2CCOCC2)ccc2c3n(c(=NC(=O)c4cnc(N)nc4)nc12)CCN3 : what was it? active

Assay outcome for CC1(C)CCC(CN2CCN(c3ccc(C(=O)NS(=O)(=O)c4ccc(NCC5CCOCC5)c([N+](=O)[O-])c4)c(Oc4cnc5[nH]ccc5c4)c3)CC2)=C(c2ccc(Cl)cc2)C1 + Cc1nc(NC(=O)N2CCCC2C(N)=O)sc1-c1ccnc(C(C)(C)C(F)(F)F)c1 : what was it? inactive

Please find the next compound below.
Assay outcome for CNC(=O)c1ccc(N2C(=S)N(c3ccc(C#N)c(C(F)(F)F)c3)C(=O)C2(C)C)cc1F + CC(Nc1ccc2c(c1)OCCn1cc(N3C(=O)OCC3C(F)F)nc1-2)C(N)=O : what was it? inactive

###

Items are presented alongside their recorded viability, T/C.
Tested on: 252836-082-R-J2-PDC tumor spheroids, viability
Assay: Anticancer human tumor 252836-082-R-J2-PDC cell line growth inhibition [PI3K];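 also: spheroids exposed to agents for seven days before readout; percent of vehicle DMSO control viability so 100% = untreated growth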
Conditions: second compound 0.316 µM; first compound 0.00949 µM; hits give low values; spheroids with HUVEC and MSC
Field: numeric (%). Do not append units.

These solved cases illustrate the format of a correct answer.
Please report the recorded viability, T/C for Cn1cnc2c(F)c(Nc3ccc(Br)cc3Cl)c(C(=O)NOCCO)cc21 + CC(Nc1ccc2c(c1)OCCn1cc(N3C(=O)OCC3C(F)F)nc1-2)C(N)=O . 49.9

Please report the recorded viability, T/C for Cn1cnc2c(F)c(Nc3ccc(Br)cc3Cl)c(C(=O)NOCCO)cc21 + COc1c(OCCCN2CCOCC2)ccc2c3n(c(=NC(=O)c4cnc(N)nc4)nc12)CCN3 . 14.8

Please report the recorded viability, T/C for Cn1cnc2c(F)c(Nc3ccc(Br)cc3Cl)c(C(=O)NOCCO)cc21 + Cc1nc(NC(=O)N2CCCC2C(N)=O)sc1-c1ccnc(C(C)(C)C(F)(F)F)c1 . 66.9

Let us move to another entry and its viability, T/C.
Please report the recorded viability, T/C for Cn1cnc2c(F)c(Nc3ccc(Br)cc3Cl)c(C(=O)NOCCO)cc21 + CC(Nc1ncnc2nc[nH]c12)c1cc2cccc(Cl)c2c(=O)n1-c1ccccc1 . 88
